target: CDK8 (Homo sapiens (Human), UniProt P49336); test: LanthaScreen Eu Kinase Binding Assay (competitive kinase binding assay); settings: Targeting Ligands of Table 1; displacing the Tracer from the target kinase; read-out: Enzyme IC50
Sequence (P49336 whole entry, looked up): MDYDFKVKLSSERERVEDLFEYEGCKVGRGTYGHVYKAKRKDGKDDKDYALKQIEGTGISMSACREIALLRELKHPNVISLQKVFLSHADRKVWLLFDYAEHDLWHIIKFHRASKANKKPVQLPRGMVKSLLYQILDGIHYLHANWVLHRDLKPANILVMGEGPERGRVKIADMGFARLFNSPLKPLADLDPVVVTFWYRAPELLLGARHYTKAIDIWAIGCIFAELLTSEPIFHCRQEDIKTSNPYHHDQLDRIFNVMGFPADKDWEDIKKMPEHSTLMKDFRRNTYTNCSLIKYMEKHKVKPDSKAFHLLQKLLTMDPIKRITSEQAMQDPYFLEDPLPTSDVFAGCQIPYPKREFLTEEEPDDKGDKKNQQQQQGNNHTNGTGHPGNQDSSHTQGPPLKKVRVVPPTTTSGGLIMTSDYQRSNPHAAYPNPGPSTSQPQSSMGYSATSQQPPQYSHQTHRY
Sequence (P24863 whole entry partner, looked up): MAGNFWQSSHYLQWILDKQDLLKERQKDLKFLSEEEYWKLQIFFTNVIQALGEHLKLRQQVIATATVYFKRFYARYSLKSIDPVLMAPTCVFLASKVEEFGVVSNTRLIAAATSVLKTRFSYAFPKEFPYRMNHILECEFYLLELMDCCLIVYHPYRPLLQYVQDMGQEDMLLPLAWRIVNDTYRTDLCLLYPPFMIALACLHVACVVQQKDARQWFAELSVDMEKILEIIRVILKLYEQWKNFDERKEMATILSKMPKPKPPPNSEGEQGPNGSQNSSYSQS
assay-metric: IC50

Worked set:
smiles_str=C[C@]12CC[C@H](O)CC1=CC[C@@H]1[C@@H]2CC[C@]2(C)C(c3ccc4ccncc4c3)=CC[C@@H]12 assay_metric=IC50 meas_value="0.101 to 0.2 µM"
smiles_str=C[C@]12CC[C@H]3[C@@H](CC=C4C[C@@H](O)CC[C@@]43C)[C@@H]1CC[C@@H]2c1ccc2[nH]ncc2c1 assay_metric=IC50 meas_value="> 6 µM"
smiles_str=C[C@]12CC[C@H]3[C@@H](CC=C4C[C@@H](O)CC[C@@]43C)[C@@H]1CC[C@@H]2c1ccc2c(N)n[nH]c2c1 assay_metric=IC50 meas_value="0.301 to 0.7 µM"
smiles_str=CN(C)[C@@H]1CC[C@@]2(C)[C@@H](CC[C@@H]3[C@@H]2CC[C@]2(C)C(c4ccc5ccncc5c4)=CC[C@@H]32)C1 assay_metric=IC50 meas_value="0.201 to 0.3 µM"
smiles_str=C[C@]12CC[C@H]3[C@@H](CC=C4C[C@@H](O)CC[C@@]43C)[C@@H]1CC[C@@H]2c1ccc2cnncc2c1 assay_metric=IC50 meas_value="> 6 µM"
smiles_str=C[C@]12CC[C@H](O)CC1=CC[C@@H]1[C@@H]2CC[C@]2(C)C(c3ccc4cn[nH]c4c3)=CC[C@@H]12 assay_metric=IC50 meas_value="> 6 µM"

Entry C[C@]12CC[C@H](O)CC1=CC[C@@H]1[C@@H]2CC[C@]2(C)C(c3ccc4[nH]ncc4c3)=CC[C@@H]12 under CDK8 (Homo sapiens (Human), UniProt P49336) had IC50 of > 6 µM

Entry C[C@]12CC[C@H]3[C@@H](CC=C4C[C@@H](O)CC[C@@]43C)[C@@H]1CC[C@@H]2c1ccc2ccncc2c1 under CDK8 (Homo sapiens (Human), UniProt P49336) had IC50 of < 0.1 µM

###

molecular target: CDK8 (Homo sapiens (Human)); assay: LanthaScreen Eu Kinase Binding Assay (competitive kinase binding assay); details: Targeting Ligands of Table 1; displacing the Tracer from the target kinase; read-out: Enzyme IC50
assay-metric: IC50

Entry CC(=O)N(C)[C@H]1CC[C@@]2(C)[C@@H](CC[C@@H]3[C@@H]2CC[C@]2(C)[C@@H](c4ccc5ccncc5c4)CC[C@@H]32)C1 under CDK8 (Homo sapiens (Human)) had IC50 of < 100 nM

Entry C[C@]12CC[C@H](O)C[C@@H]1CC[C@@H]1[C@@H]2CC[C@]2(C)C(c3ccc4ccncc4c3)=CC[C@@H]12 under CDK8 (Homo sapiens (Human)) had IC50 of 701 to 2000 nM

Entry C[C@]12CC[C@H]3[C@@H](CC=C4C[C@@H](O)CC[C@@]43C)[C@@H]1CC[C@@H]2c1ccc2cn[nH]c2c1 under CDK8 (Homo sapiens (Human)) had IC50 of > 6000 nM

Entry CN(C)[C@H]1CC[C@@]2(C)[C@@H](CC[C@@H]3[C@@H]2CC[C@]2(C)[C@@H](c4ccc5ccncc5c4)CC[C@@H]32)C1 under CDK8 (Homo sapiens (Human)) had IC50 of < 100 nM

Entry C[C@]12CC[C@H]3[C@@H](CC=C4C[C@@H](O)CC[C@@]43C)[C@@H]1CC[C@@H]2c1ccc2nc(N)ncc2c1 under CDK8 (Homo sapiens (Human)) had IC50 of 101 to 200 nM

Entry C[C@]12CC[C@H](O)C[C@@H]1CC[C@@H]1[C@@H]2CC[C@]2(C)[C@@H](c3ccc4ccncc4c3)CC[C@@H]12 under CDK8 (Homo sapiens (Human)) had IC50 of 201 to 300 nM

The reported numbers originate from patent US12325725B2.
